The reported measurements were obtained from PubChem BioAssay (EPA / NIEHS).

# Experiment Description: CCTE_Shafer_MEA_dev_per_burst_interspike_interval: CCTE's Neural Network Formation Assay for Burst Interspike Interval, Shafer Lab (AID 2284044);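 note: mean spike spacing inside bursts as AUC over recordings on days 5 7 9 12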;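 for AC50: potency for a decrease of within-burst interspike interval below DMSO level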
The source made the active and inactive calls. Rule for the calls: active = hit-call score of the fitted dose curve at least 0.9, where 1 is the maximum; inactive = score below 0.9.
Measurement Label: AC50

Examples from the recorded data:
{"Compound": "O=C(O)C(F)(F)C(F)(F)C(=O)O", "AC50": "inactive"}
{"Compound": "O=C(O)C(F)(F)OC(F)(F)C(F)(F)OC(F)(F)C(=O)O", "AC50": "inactive"}
{"Compound": "O=P1(N(CCCl)CCCl)NCCCO1 (stereo not drawn)", "AC50": "inactive"}
{"Compound": "c1cc2c3c(cccc3c1)CC2", "AC50": "inactive"}
{"Compound": "O=S(=O)(c1ccc(O)cc1)c1ccc(O)cc1", "AC50": "inactive"}

Lab note: measured AC50 of O=C(O)C=CC(F)(C(F)(F)F)C(F)(F)F was inactive

Lab note: measured AC50 of CCOc1ccc(C(C)(C)COCc2cccc(Oc3ccccc3)c2)cc1 was 14 µM (active)

Lab note: measured AC50 of CO/N=C(/C(=O)OC)c1ccccc1COc1ccccc1C was 2.25 µM (active)

Lab note: measured AC50 of CCC1(c2ccccc2)C(=O)N=C(O)NC1=O (stereo not drawn) was inactive

Lab note: measured AC50 of O=C(O)C(F)(OC(F)(F)C(F)(F)C(F)(F)F)C(F)(F)F (stereo not drawn) was inactive

Lab note: measured AC50 of ClC1=C(Cl)C2(Cl)C3C(Cl)C(Cl)CC3C1(Cl)C2(Cl)Cl (stereo not drawn) was 3.93 µM (active)

Lab note: measured AC50 of C=CC(=O)OCC(F)(F)C(F)F was 2.98 µM (active)

Lab note: measured AC50 of OCC(F)(F)OC(F)(F)C(F)(F)OC(F)(F)CO was inactive

---

# Read-out: catalase (CAT), CAT (gene 847)
# Experiment Description: LTEA_HepaRG_CAT: Life Technologies and Expression Analysis (LTEA) Assay for catalase (CAT) using HepaRG (AID 2283452)
# Run Parameters: mRNA level, 48 h; actives raise or lower the signal
Activity calls are given as the source filed them. How the source made its calls: active means hit-call score of the fitted dose curve at least 0.9, where 1 is the maximum; inactive means score below 0.9.
Measurement Label: outcome

{"Smiles Str": "CCCN(CCC)c1c([N+](=O)[O-])cc(C(C)C)cc1[N+](=O)[O-]", "Measurement Label": "outcome", "Result": "inactive"}
{"Smiles Str": "Cc1ccc(N)cc1N", "Measurement Label": "outcome", "Result": "inactive"}
{"Smiles Str": "CCNc1nc(Cl)nc(NC(C)(C)C)n1", "Measurement Label": "outcome", "Result": "inactive"}

---

# Assayed System: Myc proto-oncogene protein (Homo sapiens) (UniProt P01106)
# Sequence (P01106 whole entry, looked up): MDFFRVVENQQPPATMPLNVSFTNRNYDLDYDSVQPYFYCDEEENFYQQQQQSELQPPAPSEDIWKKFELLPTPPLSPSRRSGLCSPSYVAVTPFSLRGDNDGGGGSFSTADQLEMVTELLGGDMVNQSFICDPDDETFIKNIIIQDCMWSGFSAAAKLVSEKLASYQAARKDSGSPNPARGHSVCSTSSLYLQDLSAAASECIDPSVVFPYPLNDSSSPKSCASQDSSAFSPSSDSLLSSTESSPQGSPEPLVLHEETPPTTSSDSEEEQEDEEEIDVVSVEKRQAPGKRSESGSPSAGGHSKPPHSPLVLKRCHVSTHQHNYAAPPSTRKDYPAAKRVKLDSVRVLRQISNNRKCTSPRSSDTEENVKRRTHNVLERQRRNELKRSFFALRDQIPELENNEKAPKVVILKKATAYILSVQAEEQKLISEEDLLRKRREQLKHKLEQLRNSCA
# Experiment Description: ATG_Myc_CIS: Attagene CIS-FACTORIAL HepG2 Assay for human Myelocytomatosis (Myc) Proto-Oncogene Transcription Factor (AID 2282990)
# Run Parameters: HepG2, Attagene cis-reporter transcription factor activity; actives raise or lower the signal
Active and inactive are the calls of the source. How the source made its calls: active means hit-call score of the fitted dose curve at least 0.9, where 1 is the maximum; inactive means score below 0.9.
Outcomes you can answer with include only these: active, inactive

{"Molecule": "CCCCc1ccccc1", "Group": "inactive"}
{"Molecule": "CCOP(=S)(OCC)SCS(=O)(=O)CC", "Group": "inactive"}
{"Molecule": "OCC(F)(F)OC(F)(F)C(F)(F)OC(F)(F)CO", "Group": "inactive"}
{"Molecule": "CC(Cl)CN(C)C (centres undefined)", "Group": "inactive"}

I would be grateful if you could indicate the recorded call for FC(F)(F)C(F)(C(F)(F)F)C(F)(F)C(F)(F)CC1CO1 (centres undefined) . inactive

I would be grateful if you could indicate the recorded call for CCCCC(CC)COC(=O)c1c(Br)c(Br)c(Br)c(Br)c1C(=O)OCC(CC)CCCC (centres undefined) . inactive

I would be grateful if you could indicate the recorded call for CC(=O)CCc1ccc2c(c1)OCO2 . inactive

I would be grateful if you could indicate the recorded call for Cc1c([N+](=O)[O-])cc2c(c1[N+](=O)[O-])C(C)(C)CC2(C)C . active

I would be grateful if you could indicate the recorded call for CNC(=O)Oc1ccc(N(C)C)c(C)c1 . inactive

I would be grateful if you could indicate the recorded call for O=C(O)C=CC(F)(C(F)(F)F)C(F)(F)F . inactive

I would be grateful if you could indicate the recorded call for CCOP(=S)(OCC)SCSCC . inactive

I would be grateful if you could indicate the recorded call for c1ccc2c(c1)Nc1ccccc1S2 . inactive
